Exercise: state measured inhibition at 1000 µM for each of the compounds provided.
System: J774.2
Experiment: Antiinflammatory activity against mouse J774.2 cells assessed as inhibition of LPS-induced TNFalpha release at 1 mM after 24 hrs by ELISA relative to control
Type: functional
Conditions: J774.2, 24 h
One number for each entry, in %.

COMPOUND	NUMERIC_RESULT
CCOC(=O)C1C(=O)C=C(Nc2ccccc2N2CCN(C)CC2)CC1C (stereo unspecified)	53

Look at each compound and report its inhibition at 1000 µM.
1. C[C@@H]1C[C@H]2[C@@H]3CCC4=CC(=O)C=C[C@]4(C)[C@@]3(F)[C@@H](O)C[C@]2(C)[C@@]1(O)C(=O)CO
2. CCOC(=O)C1C(=O)C=C(Nc2ccc(N3CCN(C)CC3)cc2)CC1c1ccccc1 (stereo unspecified)

Solution:
1. 62
2. 100

Look at each compound and report its inhibition at 1000 µM.
1. COC(=O)C1C(=O)C=C(Nc2ccccc2N2CCN(C)CC2)CC1C (stereo unspecified)
2. CCOC(=O)C1C(=O)C=C(Nc2ccc(Cl)cc2)CC1C (stereo unspecified)

Solution:
[47, 70]
